Value source: patent US20250051443A1

Let's look at some binders and their measured % residual fluorescence of labeled mAb.
# SYSTEM TESTED: T1, human CD3 (human, UniProt P07766 23-207; P09693 23-182; P04234 22-171)
# T1 construct: whole, on cells; also called CD3 on Jurkat T cells; CD3 on primary human T cells
# EXPERIMENT DESCRIPTION: flow competition on Jurkat, 100 nM unlabeled mAb; competitor AF488-UCHT1 5 nM
Dear colleague, please return just the value in %, with no unit written.

{"BINDER": "F332-1E2 (antibody, mouse IgG2a, V domains shown, Sister clone 8C5 shares the same entries; also called F332-1E2-2; F332-1E2 (8C5)) VH: QVQLQQPGAELGKPGTSVKLSCKASGYTFTSYWIHWVKQRPGQGLEWVGNINPNSGSINYNEKFKNKATLTVDKSSSTAYMQLSTLTSEDFAVYYCTRDTSGQYYFDYWGQGTTLTVSS VL: DIVMSQSPSSLAVSAGERVTMSCKSSQSLLNSRTRKNYLAWYQQKPGQSPKLLIYWASTRESGVPDRFTGSGSGTDFTLTISSVQAEDLAVYYCIQSYHLRTFGGGTKLEIK", "RESULT UNITS": "%", "% residual fluorescence of labeled mAb": 69}
{"BINDER": "F332-7B7 (antibody, mouse IgG2a, V domains shown, also called F332-7B7-2) VH: QVQLQQPGTELGKPGTSVKLSCKASGYTFTNYWMHWVKQRPGQGLEWIGNINPNSGSTNYNQKFKSKATLTLDKSSSTAYMQFSTLTSEDSAVYYCTRDSSGQYYFDYWGQGTTLTVSS VL: DIVMSQSPSSLAVSAGEKVTMSCKSSQSLLNSRTRKNYLAWYQQKPGQSPKLLIYWASTRESGVPDRFTGSGSGTDFTLTISSVQAEDLAVYYCIQSFHLRTFGGGTKLEIK", "RESULT UNITS": "%", "% residual fluorescence of labeled mAb": 79}
{"BINDER": "F332-7E3 (antibody, mouse IgG2a, V domains shown, also called F332-7E3-2) VH: QVQLQQPGAELGKPGTSVKLSCKASGYTFTSYWIHWVKQRPGQGLEWIGNINPNSGSINYNEKFKSKATLTVDKSSSTAYMQLSTLTSEDFAVYYCTRDTSGQYYFDYWGQGTTLTVSS VL: DIVMSQSPSSLAVSAGEKVTMSCKSSQSLLNSRTRKNYLAWYQQKPGQSPKLLIYWASTRESGVPDRFTGSGSGTDFTLTISSVQAEDLAVYYCKQSYHLRTFGGGTKLEIK", "RESULT UNITS": "%", "% residual fluorescence of labeled mAb": 67}
{"BINDER": "F332-1C9 (antibody, mouse IgG2a, V domains shown, Sister clones 1A10, 5H8, 8B11 share the same entries; also called F332-1C9-2; F332-1C9 (1A10, 5H8, 8B11)) VH: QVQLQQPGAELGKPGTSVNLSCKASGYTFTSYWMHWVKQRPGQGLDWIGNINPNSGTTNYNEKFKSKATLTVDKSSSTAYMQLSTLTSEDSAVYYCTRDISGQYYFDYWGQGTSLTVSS VL: DIVMSQSPSSLAVSAGEKVTMSCKSSQSLLNSRTRKNYLAWYQQKPGQSPKLLIYWASTRESGVPDRFTGSGSGTDFTLIISSVQAEDLAVYYCKQSYSLRTFGGGTKLEIK", "RESULT UNITS": "%", "% residual fluorescence of labeled mAb": 76}

Could you now look at the following binder, please?
# query: % residual fluorescence of labeled mAb of entry F332-7C9 (antibody, mouse IgG2a, V domains shown, also called F332-7C9-2; F332-7C9 (5C7, 7D10)) VH: QVQLQQSGPELVKPGASVRISCKASGYTFTSHYLHWVKQRPGQGFEWIGWIYPGDGNTRYNEKFKDRATLTADKSSSTAYLHLSSLTSEDSAVYFCARDAGYYFDYWGQGTTLAVSS VL: DIVMSQSPSSLAVSAGEKVTMSCKSSQSLLNSRTRKNYLAWYQQKPGQSLKVLIYWASTRESGVPDRFTGSGSGTDFTLTISSVQAEDLAVYYCKQSYSLRTFGGGTKLEIK
68
